B1: library; numbered along this chain (parent)
chain: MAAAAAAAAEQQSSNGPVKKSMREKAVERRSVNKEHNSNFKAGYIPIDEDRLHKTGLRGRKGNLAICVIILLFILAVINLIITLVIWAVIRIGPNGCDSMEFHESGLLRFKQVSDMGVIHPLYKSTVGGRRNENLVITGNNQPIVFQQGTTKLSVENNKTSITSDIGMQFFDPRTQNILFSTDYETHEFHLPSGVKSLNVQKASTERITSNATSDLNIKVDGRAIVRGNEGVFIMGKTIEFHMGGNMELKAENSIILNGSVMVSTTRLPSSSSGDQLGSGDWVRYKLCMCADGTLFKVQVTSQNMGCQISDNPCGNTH

Variants of: B1
experimental.details: SGCB cell-surface expression functional score (HA stain, bin4 vs bin1, normalised to synonymous) (log10 ratio); higher = more cell-surface SGCB (functional)
Lab note: anything with SGCB cell-surface expression functional score (log10) at or over -0.2 counts as class 1; the rest go in class 0.

changes	class.name
E35M	class 1
G117F	class 0
Y184E	class 0
A2H	class 1
Y285G	class 0

Is SGCB cell-surface expression functional score (log10) at least -0.2? Consider `I90V` class 1

Is SGCB cell-surface expression functional score (log10) at least -0.2? Consider `L107A` class 0

Is SGCB cell-surface expression functional score (log10) at least -0.2? Consider `T182I` class 0

Is SGCB cell-surface expression functional score (log10) at least -0.2? Consider `K41A` class 1

Is SGCB cell-surface expression functional score (log10) at least -0.2? Consider `S210N` class 0

Is SGCB cell-surface expression functional score (log10) at least -0.2? Consider `D98I` class 0

Is SGCB cell-surface expression functional score (log10) at least -0.2? Consider `G259Q` class 1
